Target: bovine trypsin (Bos taurus)
Test: Trypsin inhibitory activity of peptides (BApNA hydrolysis, OD405; IC50, Ki, residual activity)
Type: biochemical
Conditions: peptide 0.98 μM
Bridge positions count the residues as written; N and C are the ends. Peptide text beside a SMILES is read from it.
In this section we review reported Residual trypsin activity values for a set of compounds.
Numbers only here, please. The scale is %.

CC[C@H](C)[C@@H]1NC(=O)[C@@H]2CCCN2C(=O)[C@@H]2CCCN2C(=O)[C@H]([C@@H](C)CC)NC(=O)[C@H](CO)NC(=O)[C@H](CCCCN)NC(=O)[C@H]([C@@H](C)O)NC(=O)[C@H](CO)NC(=O)[C@H](CCCNC(=N)N)NC(=O)CNC(=O)[C@@H](N)CSSC[C@@H](C(=O)N[C@@H](Cc2ccccc2)C(=O)O)NC1=O [BT47] (H-CGRSTKSIPPICF-OH; disulfide 1-12; C-terminus assumed) ... 0.2

Attention now turns to another entry.
The compound CC[C@H](C)[C@@H]1NC(=O)[C@H](CO)NC(=O)[C@H](CCCCN)NC(=O)[C@H]([C@@H](C)O)NC(=O)[C@H](C)NC(=O)[C@H](CCCNC(=N)N)NC(=O)CNC(=O)[C@@H](N)CSSC[C@@H](C(=O)N[C@@H](Cc2ccc(O)cc2)C(=O)O)NC(=O)[C@H](CCC(N)=O)NC(=O)[C@@H]2CCCN2C(=O)[C@@H]2CCCN2C1=O [BT12] (H-CGRATKSIPPQCY-OH; disulfide 1-12; N-terminus and C-terminus assumed) on bovine trypsin (Bos taurus): Residual trypsin activity was 107.9

---

Target: bovine trypsin (Bos taurus, UniProt P00760)
Sequence (P00760 24-246): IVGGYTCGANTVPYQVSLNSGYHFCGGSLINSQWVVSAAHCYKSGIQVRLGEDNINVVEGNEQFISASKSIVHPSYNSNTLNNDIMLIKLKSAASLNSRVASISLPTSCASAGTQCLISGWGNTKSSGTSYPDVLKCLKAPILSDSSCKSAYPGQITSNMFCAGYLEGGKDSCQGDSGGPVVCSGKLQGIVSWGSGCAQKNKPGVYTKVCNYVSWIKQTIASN
Assay: Trypsin inhibitory activity of peptides (BApNA hydrolysis, OD405; IC50, Ki, residual activity)
Assay type: biochemical
Conditions: peptide 0.98 μM
Bridge positions count the residues as written; N and C are the ends. Square brackets hold non-standard residues; d marks the D form. Peptide text beside a SMILES is read from it. Nle = CCCC[C@H](N)C(=O)O
Below is a list of entries, each paired with its recorded Residual trypsin activity value.
Give just the numeric value; % need not be written.

CC[C@H](C)[C@@H]1NC(=O)[C@H](C)NC(=O)[C@@H]2CCCN2C(=O)[C@H]([C@@H](C)CC)NC(=O)[C@H](CO)NC(=O)[C@H](CCCCN)NC(=O)[C@H]([C@@H](C)O)NC(=O)[C@H](C)NC(=O)[C@H](CCCNC(=N)N)NC(=O)CNC(=O)[C@@H](N)CSSC[C@@H](C(=O)N[C@@H](Cc2ccccc2)C(=O)O)NC1=O [BT10] (H-CGRATKSIPAICF-OH; disulfide 1-12) ... −0.1
CC[C@H](C)[C@@H]1NC(=O)[C@@H]2CCCN2C(=O)[C@@H]2CCCN2C(=O)[C@H]([C@@H](C)CC)NC(=O)[C@H](CO)NC(=O)[C@H](CCCCN)NC(=O)[C@H]([C@@H](C)O)NC(=O)[C@@H](NC(=O)[C@@H](N)CCCNC(=N)N)CSSC[C@@H](C(=O)N[C@@H](Cc2ccccc2)C(=O)O)NC1=O [BT45] (H-RCTKSIPPICF-OH; disulfide 2-10; C-terminus assumed) ... 0.4
CCCC[C@@H]1NC(=O)[C@H](CO)NC(=O)[C@H](CCCCN)NC(=O)[C@H]([C@@H](C)O)NC(=O)[C@H](C)NC(=O)[C@H](CCCNC(=N)N)NC(=O)CNC(=O)[C@@H](N)CSSC[C@@H](C(=O)N[C@@H](Cc2ccccc2)C(=O)O)NC(=O)[C@H]([C@@H](C)CC)NC(=O)[C@@H]2CCCN2C(=O)[C@@H]2CCCN2C1=O [BT28] (H-CGRATKS[Nle]PPICF-OH; disulfide 1-12; C-terminus assumed) ... 0.7
CC[C@H](C)[C@@H]1NC(=O)[C@@H]2CCCN2C(=O)[C@@H]2CCCN2C(=O)[C@H]([C@@H](C)CC)NC(=O)[C@H](CO)NC(=O)[C@H](CCCCN)NC(=O)[C@H]([C@@H](C)O)NC(=O)[C@H](C)NC(=O)[C@H](CCCNC(=N)N)NC(=O)[C@H](C)NC(=O)[C@@H](N)CSSC[C@@H](C(=O)N[C@@H](Cc2ccccc2)C(=O)O)NC1=O [BT67] (H-CARATKSIPPICF-OH; disulfide 1-12) ... 0.1

The reported value for CC[C@H](C)[C@@H]1NC(=O)[C@@H]2CCCN2C(=O)[C@@H]2CCCN2C(=O)[C@H]([C@@H](C)CC)NC(=O)[C@H](CO)NC(=O)[C@H](CCCCN)NC(=O)[C@H]([C@@H](C)O)NC(=O)[C@H](C)NC(=O)[C@H](CCCCN)NC(=O)[C@H](C)NC(=O)CNC(=O)[C@@H](N)CSSC[C@@H](C(=O)N[C@@H](Cc2ccccc2)C(=O)N2CCC[C@H]2C(=O)N[C@@H](CC(=O)O)C(=O)O)NC1=O [BT3] (H-CGAKATKSIPPICFPD-OH; disulfide 1-13; N-terminus and C-terminus assumed) in terms of Residual trypsin activity is 23.3

---

Values of pIC50 reported for porcine pancreatic elastase (Sus scrofa) appear below.
pIC50: −log10 of the molar value. Bridge positions count the residues as written; N and C are the ends. Peptide text beside a SMILES is read from it.

Worked set:
CC[C@H](C)[C@@H]1NC(=O)[C@@H]2CCCN2C(=O)[C@@H]2CCCN2C(=O)[C@H]([C@@H](C)CC)NC(=O)[C@H](CO)NC(=O)[C@H](C)NC(=O)[C@H]([C@@H](C)O)NC(=O)[C@@H](NC(=O)[C@@H](N)C(C)C)CSSC[C@@H](C(=O)N[C@@H](CCC(N)=O)C(=O)O)NC1=O [EC22] (H-VCTASIPPICQ-OH; disulfide 2-10; C-terminus assumed) ... 6.40
CC[C@H](C)[C@@H]1NC(=O)CNC(=O)[C@@H](N)CSSC[C@@H](C(=O)N[C@@H](CCC(N)=O)C(=O)O)NC(=O)[C@H]([C@@H](C)CC)NC(=O)[C@@H]2CCCN2C(=O)[C@@H]2CCCN2C(=O)[C@H]([C@@H](C)CC)NC(=O)[C@H](CO)NC(=O)[C@H](C)NC(=O)[C@H]([C@@H](C)O)NC(=O)[C@H](C)NC1=O [EC30] (H-CGIATASIPPICQ-OH; disulfide 1-12) ... < 4.30

Here's the next entry for you.
porcine pancreatic elastase (Sus scrofa) pIC50 of CC[C@H](C)[C@@H]1NC(=O)[C@H](CO)NC(=O)[C@H](C)NC(=O)[C@H]([C@@H](C)O)NC(=O)[C@H](CCC(=O)O)NC(=O)[C@H](CCCNC(=N)N)NC(=O)CNC(=O)[C@@H](N)CSSC[C@@H](C(=O)N[C@@H](CCCCN)C(=O)O)NC(=O)[C@H](CCC(N)=O)NC(=O)[C@@H]2CCCN2C(=O)[C@@H]2CCCN2C1=O [EC9] (H-CGRETASIPPQCK-OH; disulfide 1-12; N-terminus and C-terminus assumed) is < 4.30

---

Heads up, these compounds all have IC50 values measured for α-chymotrypsin (Bos taurus, UniProt P00766).
Bridge positions count the residues as written; N and C are the ends. Peptide text beside a SMILES is read from it.

CC[C@H](C)[C@@H]1NC(=O)[C@H](CO)NC(=O)[C@H](Cc2ccc(O)cc2)NC(=O)[C@H]([C@@H](C)O)NC(=O)[C@H](C)NC(=O)[C@H](C)NC(=O)CNC(=O)CNC(=O)[C@@H](N)CSSC[C@@H](C(=O)N[C@@H](Cc2ccccc2)C(=O)O)NC(=O)[C@H](CCCCN)NC(=O)[C@H](C)NC(=O)[C@@H]2CCCN2C1=O [CH32] (H-CGGAATYSIPAKCF-OH; disulfide 1-13; N-terminus and C-terminus assumed) ... 6.38 µM

Next compound, please.
IC50 reported for this compound CC[C@H](C)[C@H](N)C(=O)N[C@H]1CSSC[C@@H](C(=O)N[C@H](C(=O)O)[C@@H](C)CC)NC(=O)[C@H](CCC(N)=O)NC(=O)[C@H](C)NC(=O)[C@@H]2CCCN2C(=O)[C@H]([C@@H](C)CC)NC(=O)[C@H](CO)NC(=O)[C@H](Cc2ccc(O)cc2)NC(=O)[C@H]([C@@H](C)O)NC1=O [CH47] (H-ICTYSIPAQCI-OH; disulfide 2-10; N-terminus and C-terminus assumed) : 8.52 µM
